src = PubChem BioAssay (NCI)

Tested on: SR leukemia
Experiment: NCI tumour cell line growth inhibition, 48 h; in the data active = GI50 below about 0.43 µM; inactive = the rest
Response enum: active, inactive

The following compounds have reported results that may help.
1) CC(C)(O)c1coc(S(=O)(=O)/N=C(\O)Nc2c3c(cc4c2CCC4)CCC3)c1: inactive
2) COc1cc(C(=O)/C=C/c2c(-c3cccs3)nc3sc(C)cn23)cc(OC)c1OC: inactive
3) CC[C@]12C=CCN3CC[C@]4(C(=C(C(=O)OC)C1)Nc1cc(OC)c(OC(C)=O)cc14)[C@@H]32: active
4) CC(=O)OCC1OC(OC2=C(CC=C(C)C)C(=O)c3ccccc3C2=O)C(OC(C)=O)C(OC(C)=O)C1OC(C)=O (stereo not given): inactive

Here's the next entry for you.
Input: What is the recorded call for this compound in the test? COc1cc(OC)cc(Oc2nc3cc(N)cc(N)c3nc2-c2ccccc2)c1
Output: inactive
